Hey, just so you know, these numbers are from patent US5126336A.

Test system: P. aeruginosa IPM-8
Assay: MIC, agar dilution
Type: cell-based
Details: Pseudomonas aeruginosa, IPM8, Mueller-Hinton agar pH 7.2, 32° C., 18 hr, 10^6 cells/ml
Entries and their measured MIC follow.
Please give a number only; it is taken to be in µg/mL.

// known answers, use as guide
C[n+]1cn(C/C=C/C2=C(C(=O)[O-])N3C(=O)C(NC(=O)/C(=N\OC(C)(C)C(=O)O)c4csc(N)n4)C3SC2)c2cc(O)c(O)cc21 (stereo not drawn)
0.1
CC(C)(O/N=C(\C(=O)NC1C(=O)N2C(C(=O)O)=C(/C=C/Cn3cnc4cc(O)c(O)cc43)CS[C@H]12)c1csc(N)n1)C(=O)O (stereo partly drawn)
0.4

From here, focus on the item given below.
Dear colleague, please send me the reported MIC for CC(C)(O/N=C(\C(=O)NC1C(=O)N2C(C(=O)[O-])=C(/C=C/C[n+]3cc4cc(O)c(O)cc4cn3)CS[C@H]12)c1csc(N)n1)C(=O)O (stereo partly drawn) when you can.
0.2

====

Recorded MIC values for a group of molecules are listed next.
Tested on: Gp-Ia: Penicillin(PC)-sensitive S. aureus (5 strains)
Assay: MIC, two-fold serial agar dilution, Gp-Ia
Type: cell-based
Details: Staphylococcus aureus, Mueller-Hinton agar, read-out: Geometric mean of MIC
Protocol: Minimum inhibitory concentrations (MICs) of the present series of cephalosporins were determined against 32 strains of test organisms by two-fold serial agar dilution method in Mueller-Hinton agar. Geometric means of MICs were calculated against six groups of the test organisms which are classified as follows and summarized in Table 1. Gp-Ia Penicillin(PC)-sensitive S. aureus (5 strains).
Note: unit µg/mL is implicit; provide only the numeric part.

Answered examples (2):
CC(C)(O/N=C(\C(=O)NC1C(=O)N2C(C(=O)[O-])=C(/C=C\C[N+]3(C)Cc4cc(O)c(O)cc4C3)CS[C@H]12)c1csc(N)n1)C(=O)O (stereo partly drawn)
25
CC(C)(O/N=C(\C(=O)NC1C(=O)N2C(C(=O)O)=C(/C=C/Cn3ccc4cc(=O)c(O)cc-4c3)CS[C@H]12)c1csc(N)n1)C(=O)O (stereo partly drawn)
12.5

Now look at this one.
Identify MIC associated with the molecule CC(C)(O/N=C(\C(=O)NC1C(=O)N2C(C(=O)[O-])=C(/C=C/C[N+](C)(C)CCc3ccc(O)c(O)c3)CS[C@H]12)c1csc(N)n1)C(=O)O (stereo partly drawn)
13

====

Tested on: M. morgani 1510
Define the label as Fulfilled when MIC is strictly less than 6 µg/mL and as Not fulfilled in all remaining cases.

Field: example entries. Status: answers known.
Nc1nc(/C(=N/O)C(=O)NC2C(=O)N3C(C(=O)O)=C(/C=C/Cn4ccc5cc(=O)c(O)cc-5c4)CS[C@H]23)cs1 (stereo partly shown)
Not fulfilled
CO/N=C(\C(=O)NC1C(=O)N2C(C(=O)O)=C(/C=C/Cn3cnc4cc(O)c(O)cc43)CS[C@H]12)c1csc(N)n1 (stereo partly shown)
Not fulfilled
C[n+]1cn(C/C=C/C2=C(C(=O)[O-])N3C(=O)C(NC(=O)/C(=N\OC(C)(C)C(=O)O)c4csc(N)n4)C3SC2)c2cc(O)c(O)cc21 (stereo not shown)
Fulfilled

Strictly below 6 µg/mL in MIC? CC(C)(O/N=C(\C(=O)NC1C(=O)N2C(C(=O)O)=C(/C=C/Cn3cnc4cc(O)c(O)cc43)CS[C@H]12)c1csc(N)n1)C(=O)O (stereo partly shown)
Fulfilled
